Molecular target: TYRO3 (RSE) (Homo sapiens)
Sequence (Q06418 41-890): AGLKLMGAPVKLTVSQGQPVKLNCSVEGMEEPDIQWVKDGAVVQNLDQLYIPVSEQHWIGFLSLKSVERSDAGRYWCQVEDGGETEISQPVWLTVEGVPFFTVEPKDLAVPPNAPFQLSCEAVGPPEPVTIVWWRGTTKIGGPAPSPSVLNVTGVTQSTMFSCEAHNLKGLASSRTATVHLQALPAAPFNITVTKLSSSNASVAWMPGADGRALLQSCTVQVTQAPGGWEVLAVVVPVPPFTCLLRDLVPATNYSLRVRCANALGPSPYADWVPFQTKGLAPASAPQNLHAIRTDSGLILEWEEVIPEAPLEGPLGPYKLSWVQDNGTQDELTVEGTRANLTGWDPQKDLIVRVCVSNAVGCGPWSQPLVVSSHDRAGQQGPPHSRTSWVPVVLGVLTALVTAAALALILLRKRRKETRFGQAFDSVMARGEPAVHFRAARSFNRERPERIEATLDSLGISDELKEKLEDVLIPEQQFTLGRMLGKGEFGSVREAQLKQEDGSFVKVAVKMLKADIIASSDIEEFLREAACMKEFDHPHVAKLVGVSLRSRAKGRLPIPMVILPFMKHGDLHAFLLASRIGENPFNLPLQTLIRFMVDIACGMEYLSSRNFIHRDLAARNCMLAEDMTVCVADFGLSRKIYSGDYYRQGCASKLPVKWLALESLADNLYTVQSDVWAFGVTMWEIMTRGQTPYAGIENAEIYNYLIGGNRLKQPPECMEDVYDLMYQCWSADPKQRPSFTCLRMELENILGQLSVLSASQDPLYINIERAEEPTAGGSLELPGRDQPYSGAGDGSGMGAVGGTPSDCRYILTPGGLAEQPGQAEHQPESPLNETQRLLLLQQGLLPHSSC
Test: Tyrosine kinase inhibition assay
Format: biochemical
Conditions: TYRO3 (RSE); single concentration 1.0 μM; read-out: percent inhibition
RESULT_TYPE: inhibition at 1 µM (%)
Give the value in % but do not write % after it.

// COc1cc2nccc(Oc3ccc(NC(=O)C4(NC(=O)c5ccc(F)cc5)CC4)cc3F)c2cc1Oc1c(F)cc(N)cc1F : inhibition at 1 µM value = 89

// COc1cc2nccc(Oc3ccc(NC(=O)C4(NC(=O)c5ccc(F)cc5)CC4)cc3F)c2cc1Oc1ccc(N)cc1F : inhibition at 1 µM value = 87

// COc1cc2nccc(Oc3ccc(NC(=O)C4(NC(=O)c5ccc(F)cc5)CC4)cc3F)c2cc1OC : inhibition at 1 µM value = 58

// COc1cc2nccc(Oc3ccc(NC(=O)C4(C(=O)Nc5ccc(F)cc5)CC4)cc3F)c2cc1Oc1ccc(N)cc1F : inhibition at 1 µM value = 100

// provenance: patent US20250120967A1
